- Measurement Target: Peroxisome proliferator-activated receptor delta (Homo sapiens)
- Measurement Protocol: qHTS assay for small molecule agonists of peroxisome proliferator-activated receptor delta signaling (AID 588534)
- Condition Summary: HEK293T PPARdelta-UAS-bla, beta-lactamase ratio, 18 h; series mostly up to 76.7 µM
Inconclusive results are not listed. Activity calls are given as the source filed them. Calls follow the shape of the full dose curve.
Measurement Label: outcome

- Cc1ccccc1C#N: inactive
- CNC(=O)Oc1cccc(N=CN(C)C)c1: inactive
- CC1=C(/C=C/C(C)=C/C=C/C(C)=C/C=O)C(C)(C)CCC1: inactive
- NCCCCCCCCCCCC(=O)O: inactive
- O=C(O)c1cccc([N+](=O)[O-])c1: inactive
- Nc1ccc(-c2ccc(N)c(O)c2)cc1O: inactive
- CC1=CC(=O)CC(C)(C)C1(O)/C=C/C(C)=C\C(=O)O (stereo not drawn): inactive
- Cc1ccc2oc(=O)ccc2c1: inactive
- COC(=O)c1ccccc1S(=O)(=O)NC(=O)Nc1nc(C)nc(OC)n1: inactive
- COC(=O)c1ccc(CNS(C)(=O)=O)cc1S(=O)(=O)NC(=O)Nc1nc(OC)cc(OC)n1: inactive
- O=[N+]([O-])c1ccccc1CCO: inactive
- CN(C)CCCCl: inactive
- O=[N+]([O-])c1ccc(F)cc1F: inactive
